All figures here come from patent US11542262B2.

// log10 solubility at 2 h lookup, one value per entry
protocol: Kinetic solubility test in PBS pH7.4
Type: physicochemical
measurement-setup: aqueous buffer, kinetic from dmso stock; PBS pH 7.4, 25° C., 2 hours
All values: base-10 log of solubility at 2 h in µM.

CC(=O)Nc1nc(C)c(-c2cc3c(c(N4CCN(C(C)=O)CC4)n2)C(=O)N([C@@H](C)C2CC2)C3)s1 [Compound 40]	1.40
CC(=O)Nc1nc(C)c(-c2cc3c(c(NC(C)=O)n2)C(=O)N([C@@H](C)C2CC2)C3)s1 [Compound 44]	0.08
CC(=O)Nc1nc(C)c(-c2cc3c(c(N4CCOCC4)n2)C(=O)N([C@H](C)C2CC2)C3)s1 [Compound 35]	1.36
CC(=O)Nc1ncc(-c2cc3c(c(N4CCOCC4)n2)C(=O)N([C@@H](C)C2CC2)C3)s1 [Compound 41]	0.54
COc1nc(-c2sc(NC(C)=O)nc2C)cc2c1C(=O)N([C@@H](C)C1CC1)C2 [Compound 22]	0.54

Ask: Field request: log10 solubility at 2 h | item: COCCOc1nc(-c2sc(NC(C)=O)nc2C)cc2c1C(=O)N([C@@H](C)C1CC1)C2 [Compound 42]
Result: 0.41

Ask: Field request: log10 solubility at 2 h | item: CCS(=O)(=O)Nc1nc(-c2sc(NC(C)=O)nc2C)cc2c1C(=O)N([C@@H](C)C1CC1)C2 [Compound 23]
Result: 2.31
